Data credit: paper PMC10674987

method_summary: Bidirectional permeability in Caco-2 cells in absence and presence of SCE
Assay type: in vitro ADME, human
condition_set: human, Caco-2, Free; 10 µM compound; read-out: Efflux ratio (ER) (Papp B-A/Papp A-B)
Consider the following molecules; for each one, report its efflux ratio at 2 h, 10 µM.

Field: example entries. Status: answers known.
| molecule | efflux ratio at 2 h, 10 µM |
| --- | --- |
| Oc1ccc(Cl)c(Nc2nc(SCCN3CCOCC3)nc3c2cnn3/C=C/c2ccccc2)c1 | 0.517 |
| CSc1nc(NCCc2ccccc2)c2cnn(CC(Cl)c3ccccc3)c2n1 (stereo not shown) | 97.3 |
| Cc1nc(Nc2ncc(C(=O)Nc3c(C)cccc3Cl)s2)cc(N2CCN(CCO)CC2)n1 [Dasatinib, dasatinib, reference compound] | 18.2 |

Now turn to the next molecule.
efflux ratio at 2 h, 10 µM for CC(Cn1ncc2c(Nc3cc(O)ccc3Cl)nc(SCCN3CCOCC3)nc21)c1ccccc1 (stereo not shown) is 6.46
